FYI, the data here is from patent US20220064218A1.

Molecular target: T1, human CD38 (human, UniProt P28907 43-300, limits assumed)
T1 construct: also called hCD38
T1 sequence (looked up): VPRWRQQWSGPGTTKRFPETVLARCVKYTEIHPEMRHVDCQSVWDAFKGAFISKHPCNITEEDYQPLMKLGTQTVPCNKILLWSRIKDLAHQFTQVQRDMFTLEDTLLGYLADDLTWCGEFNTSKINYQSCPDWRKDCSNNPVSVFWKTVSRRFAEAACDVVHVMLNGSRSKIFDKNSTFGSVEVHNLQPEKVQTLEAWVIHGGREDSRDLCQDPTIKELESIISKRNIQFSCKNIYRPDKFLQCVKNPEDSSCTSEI
Test: fluorescence polarisation competition with the labelled tracer peptide
*1 amine or outer side, *2 acyl side, *3 side chain or, on linkers, in order; H or OH if unused. Bridges are numbered along the chain shown (N, C = ends). Where no end group is shown, it is not given here. TATA = O=C(CC[*:1])N1CN(C(=O)CC[*:2])CN(C(=O)CC[*:3])C1
Each entry below lists one item and its recorded Ki value.
Measured endpoint: Ki (nM)

INSERT INTO assay_data (binder, experimental_value) VALUES
  ('ACYWNPFTACYSCTEN (linker 2-10-13 via TATA (inferred), Synthetic bicyclic peptide cyclised with TATA; also called 66-50-19-T002-N001) [66-50-19-T02-N001]', 316),
  ('ACYWNPFTACWSCEND (linker 2-10-13 via TATA (inferred), Synthetic bicyclic peptide cyclised with TATA) [66-50-16-T01-N001]', 90);
